Data provenance: the array DNA melting data of Ke et al.

Please go through the items and note down their Tm.
# TEST NAME: melting temperature; melt of duplexes
# TEST CONDITIONS: sodium 0.0675 M; strand 1 µM
# output: bare number, implied unit °C

Query string: Tm for CGACGTGCGAGATGTGCTG+CAGCACATAAGGCACGTCG ((((((((...((((((((+))))))))...)))))))) ?
Result string: 51.1

Query string: Next: CGACGTGCTCTATGTGCTG+CAGCACATTGTGCACGTCG ((((((((.(.((((((((+)))))))).).))))))))
Result string: 48.3

Query string: What do you get for CGACGTGCAAGATGTGCTG+CAGCACATGTGGCACGTCG ((((((((.(.((((((((+)))))))).).)))))))) ?
Result string: 52.8

Query string: Now give it for CGACGTGCGGGATGTGCTG+CAGCACATCAGGCACGTCG ((((((((..(((((((((+)))))))))..)))))))) too.
Result string: 56.2

Query string: Now give it for CGACGTGCCCAATGTGCTG+CAGCACATGTGGCACGTCG (((((((((..((((((((+))))))))..))))))))) too.
Result string: 56.2

Query string: Next substance up: CGACGTGCTTAATGTGCTG+CAGCACATTGCGCACGTCG ((((((((..(((((((((+)))))))))..))))))))
Result string: 50.1

Query string: And CGACGTGCTAAATGTGCTG+CAGCACATTCCGCACGTCG ((((((((..(((((((((+)))))))))..)))))))) ?
Result string: 50.1

Query string: Now try CGACGTGCTGTATGTGCTG+CAGCACATGGCGCACGTCG ((((((((...((((((((+))))))))...)))))))) .
Result string: 48.9

Query string: Try this substance too: CGACGTGCAACATGTGCTG+CAGCACATGGTGCACGTCG (((((((((.(((((((((+))))))))).)))))))))
Result string: 60

Query string: # repeat for CGACGTGCGTAATGTGCTG+CAGCACATGTTGCACGTCG ((((((((...((((((((+))))))))...))))))))
Result string: 51.7

Query string: // same read-out, input: CGACGTGCCTGATGTGCTG+CAGCACATCACGCACGTCG ((((((((.((((((((((+)))))))))).))))))))
Result string: 55.5
